molecular target: PPARγ (Homo sapiens, UniProt P37231); construct: expressed in transfected cells; host or cells: COS-7; test: GAL4 hybrid reporter gene method, PPARγ agonistic activity; type: cell-based
Sequence (P37231 238-503 limits assumed): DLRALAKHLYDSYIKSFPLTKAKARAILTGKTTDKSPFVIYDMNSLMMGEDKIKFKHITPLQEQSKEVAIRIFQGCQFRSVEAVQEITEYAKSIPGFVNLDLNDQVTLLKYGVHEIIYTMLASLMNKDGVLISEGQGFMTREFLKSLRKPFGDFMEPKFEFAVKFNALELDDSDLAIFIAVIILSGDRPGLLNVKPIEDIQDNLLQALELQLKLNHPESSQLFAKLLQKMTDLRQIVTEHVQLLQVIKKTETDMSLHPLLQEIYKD
# key: entry, value: pEC50
Reminder that pEC50 is minus the log10 of a molar concentration.

Examples with answers:
> print(dat)
                                   molecule                    experimentaltarget  quantitykind  measuredresult
1  Cc1cc(CN2C(=O)CN(c3cccc(Cl)c3)C2=O)cc(C)c1OC(C)(C)C(=O)O [Compound 107]  PPARγ (Homo sapiens, UniProt P37231)         pEC50            6.19
2  Cc1cc(CN2C(=O)CN(c3ccc(C(F)(F)F)cc3)C2=O)cc(Cl)c1OC(C)(C)C(=O)O [Compound 13]  PPARγ (Homo sapiens, UniProt P37231)         pEC50            5.89

Query: Item Cc1cc(CN2C(=O)CN(c3ccc(OC(F)(F)F)cc3)C2=O)cc(C)c1OC(C)(C)C(=O)O [Compound 3] with PPARγ (Homo sapiens, UniProt P37231) - pEC50?
Reply: 5.38

====

Molecular target: PPARδ (Homo sapiens, UniProt Q03181)
Construct: expressed in transfected cells; host or cells: COS-7
Sequence (Q03181 211-439 limits assumed): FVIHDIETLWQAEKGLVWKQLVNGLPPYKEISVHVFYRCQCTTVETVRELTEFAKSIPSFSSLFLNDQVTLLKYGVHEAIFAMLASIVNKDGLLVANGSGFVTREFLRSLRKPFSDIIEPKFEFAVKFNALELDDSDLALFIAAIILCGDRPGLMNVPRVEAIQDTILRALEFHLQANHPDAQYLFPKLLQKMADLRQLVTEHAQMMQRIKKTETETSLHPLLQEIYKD
Assay: GAL4 hybrid reporter gene method, PPARδ agonistic activity
Format: cell-based
Lab note: anything with EC50 below 30 nM is marked TRUE; values at 30 nM or higher are marked FALSE.

Query: Item Cc1cc(CN2C(=O)CN(c3ccc(C=O)cc3)C2=O)cc(C)c1OC(C)(C)C(=O)O [Compound 99] : EC50 beneath 30 nM, strictly?
Reply: FALSE

====

target: PPARα (Homo sapiens, UniProt Q07869); experiment: GAL4 hybrid reporter gene method, PPARα agonistic activity; settings: Cos-7 cells, Gal4-PPARα (LBD); GW7647 10 nM = 100%; 16 h
Sequence (Q07869 239-466 limits assumed): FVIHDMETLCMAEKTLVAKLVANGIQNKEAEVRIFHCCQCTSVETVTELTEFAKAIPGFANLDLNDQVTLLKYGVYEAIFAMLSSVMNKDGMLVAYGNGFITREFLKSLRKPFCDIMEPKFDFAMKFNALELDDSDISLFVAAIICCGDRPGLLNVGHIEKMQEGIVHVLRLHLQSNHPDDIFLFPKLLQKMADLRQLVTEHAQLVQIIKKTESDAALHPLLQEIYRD
Labelling field: enter yes if recorded EC50 is less than 4 nM. Enter no if it equals or exceeds that cut-off.

> print(dat)
                                   compound                    experimentaltarget  category
1  CCOc1ccc(N2CC(=O)N(Cc3cc(C)c(OC(C)(C)C(=O)O)c(C)c3)C2=O)cc1 [Compound 95]  PPARα (Homo sapiens, UniProt Q07869)        no
2  CC(C)(Oc1ccc(CN2C(=O)CN(c3ccc(C(F)(F)F)cc3)C2=O)cc1Br)C(=O)O [Compound 77]  PPARα (Homo sapiens, UniProt Q07869)        no
3  COc1cc(CN2C(=O)CN(c3ccc(C(F)(F)F)cc3)C2=O)cc(Cl)c1OC(C)(C)C(=O)O [Compound 73]  PPARα (Homo sapiens, UniProt Q07869)       yes
4  Cc1cc(CN2C(=O)CN(c3ccc(C(C)C)cc3)C2=O)cc(C)c1OC(C)(C)C(=O)O [Compound 65]  PPARα (Homo sapiens, UniProt Q07869)       yes
5  Cc1cc(CN2C(=O)CN(c3cccc(C(F)(F)F)c3)C2=O)cc(C)c1OC(C)(C)C(=O)O [Compound 45]  PPARα (Homo sapiens, UniProt Q07869)       yes

Query: For Cc1cc(CN2C(=O)CN(c3ccc(-c4ccccc4)cc3)C2=O)cc(C)c1OC(C)(C)C(=O)O [Compound 41] , is the recorded EC50 below the cut-off of 4 nM?
Reply: yes

Query: Record Cc1cc(CN2C(=O)CN(c3ccc(C#N)cc3)C2=O)cc(C)c1OC(C)(C)C(=O)O [Compound 37] : is its EC50 strictly below 4 nM?
Reply: no
